Reported viability at 28.5 h, 10 µM values for the following compounds.
- Procedure Summary: in vitro
- Applied Conditions: human, hela cells, % viability

{"columns": ["Compound", "viability at 28.5 h, 10 µM"],
 "data": [
  ["CCN(CC)C(=O)CN1CCCN(c2cc(OCc3cc(C)on3)ncn2)CC1 [CBK083337T]", "97%"],
  ["O=C(O)c1cccc(Cn2ccc3c(F)cccc32)c1", "95.9%"],
  ["CN(Cc1nncn1C)C(=O)c1cnc2c(c1)c(C(C)(C)C)nn2C", "85.4%"],
  ["COc1ccc(NC(=O)N[C@H]2C[C@@H](c3nc(-c4ccc(OC)cc4)no3)N(C)C2)cc1", "102%"],
  ["OCCN(Cc1cccnc1)Cc1cccn1Cc1ccccc1F", "93.5%"],
  ["O=C(CSc1ccccc1)Nc1nccs1", "109%"],
  ["O=C(CC1CC1)NC(c1ccccc1)c1ccccn1 (stereo not drawn)", "103%"],
  ["Cc1cn2c(nc1=O)OC[C@H]1O[C@@H]2C[C@H]1O", "93.5%"],
  ["COC1CCCC(C(=O)N2CCC(c3onc4c3CCC4)CC2)C1 (stereo not drawn)", "103%"],
  ["CSc1nnc(CC2CCN(C(=O)Cn3nnnc3N)CC2)n1C", "97.6%"],
  ["COc1ccc([N+](=O)[O-])cc1N1CCN(C(=O)OC(C)(C)C)CC1", "92.3%"],
  ["CC(Oc1ccccc1)C(=O)Nc1ccc(C(=O)O)cc1 (stereo not drawn)", "102%"]
]}
